B1: BCL2L13 (parent)
chain: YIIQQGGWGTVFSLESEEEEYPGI

Variants of: B1
Assay: protein stability index of a GFP-peptide fusion (GPS, HEK-293T) (PSI 1-6); higher = more stable;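 note: lentivirally expressed fusions sorted by FACS into six bins by GFP to DsRed ratio, PSI derived from sequencing read proportions per bin multiplied by bin number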
Conditions: c terminus: a fixed tail appended
Param threshold (2) applies to protein stability index; output Satisfied when value >= threshold, Not satisfied when value < threshold.

Exercise: Please tell me: is the variant `YIPQQGGWGTVFSLESEEEEYPGI` at or over 2 in terms of protein stability index?
Solution: Satisfied

Exercise: Please tell me: is the variant `YIIQQEGWGTVFSLESEEEEYPGI` at or over 2 in terms of protein stability index?
Solution: Satisfied

Exercise: Please tell me: is the variant `YIIQQGGWRTVFSLESEEEEYPGI` at or over 2 in terms of protein stability index?
Solution: Not satisfied

Exercise: Please tell me: is the variant `YIIQQGGWGTVFSLESELEEYPGI` at or over 2 in terms of protein stability index?
Solution: Not satisfied

Exercise: Please tell me: is the variant `YIIQQGGWGTVFSWESEEEEYPGI` at or over 2 in terms of protein stability index?
Solution: Not satisfied

Exercise: Please tell me: is the variant `YIIQQGQWGTVFSLESEEEEYPGI` at or over 2 in terms of protein stability index?
Solution: Satisfied

Exercise: Please tell me: is the variant `YIINQGGWGTVFSLESEEEEYPGI` at or over 2 in terms of protein stability index?
Solution: Not satisfied
